- procedure-text: folding enthalpy; higher = less favourable; fluorescence melt of hairpins on a sequencing array, two-state fit
- condition-notes: sodium 0.088 M
Rule: folding enthalpy of -20 kcal/mol or more gives true; anything lower gives false.

I'd appreciate it if you could say whether GAGCTCGGAAACGAGTTC ((.((((....)))).)) has folding enthalpy at least equal to -20 kcal/mol. false

I'd appreciate it if you could say whether GATCAAGAGTTTGATC ((((((....)))))) has folding enthalpy at least equal to -20 kcal/mol. false

I'd appreciate it if you could say whether GTTACCCCGAAAGGGAAC (((..(((....)))))) has folding enthalpy at least equal to -20 kcal/mol. true

I'd appreciate it if you could say whether GGGGGATCGAAAGATCCC (((..(((....)))))) has folding enthalpy at least equal to -20 kcal/mol. true

I'd appreciate it if you could say whether GCAAACGGAAACGTTTAC (.(((((....))))).) has folding enthalpy at least equal to -20 kcal/mol. true

I'd appreciate it if you could say whether GATCAGATATCTGATC ((((((....)))))) has folding enthalpy at least equal to -20 kcal/mol. false

I'd appreciate it if you could say whether GGGTTCGAAAGAATCCCC ((((((....)))..))) has folding enthalpy at least equal to -20 kcal/mol. true

I'd appreciate it if you could say whether GAATGCGAAAGCAGTTTC ((((((....)))..))) has folding enthalpy at least equal to -20 kcal/mol. true

I'd appreciate it if you could say whether GCCTACCCGAAAGGGGGC (((..(((....)))))) has folding enthalpy at least equal to -20 kcal/mol. true

I'd appreciate it if you could say whether GATTCCGAAAGGACATC ((((((....))).))) has folding enthalpy at least equal to -20 kcal/mol. false

I'd appreciate it if you could say whether GTGGTCGAAAGACTCCAC ((((((....)))..))) has folding enthalpy at least equal to -20 kcal/mol. true

I'd appreciate it if you could say whether GATCAGGGAAACCTGACC (.(((((....))))).) has folding enthalpy at least equal to -20 kcal/mol. true

I'd appreciate it if you could say whether GCATAGCGAAAGCTCTGC (((.(((....))).))) has folding enthalpy at least equal to -20 kcal/mol. false

I'd appreciate it if you could say whether GTCGGCGAAAGCCACGAC ((((((....)))..))) has folding enthalpy at least equal to -20 kcal/mol. true

I'd appreciate it if you could say whether GATCTTGAACAAGATC ((((((....)))))) has folding enthalpy at least equal to -20 kcal/mol. false

I'd appreciate it if you could say whether GATCACGGAAACGTGGTC ((.((((....)))).)) has folding enthalpy at least equal to -20 kcal/mol. false

I'd appreciate it if you could say whether GCAGATGGAAACGTCTGC (((((.(....).))))) has folding enthalpy at least equal to -20 kcal/mol. false

I'd appreciate it if you could say whether GAGGTGGGAAACCACTTC ((.((((....)))).)) has folding enthalpy at least equal to -20 kcal/mol. false

###

- procedure-text: melting temperature; fluorescence melt of hairpins on a sequencing array, two-state fit, raised by 9.35 °C to match UV melts
- condition-notes: sodium 0.088 M
Answer each item with its documented Tm.
// units = °C; emit number, no label

Could you share which Tm value was measured for GTCACGGGAAACCGCGAC (((.(((....))).))) ? 50.8

Could you share which Tm value was measured for GCTACTCGAAAGAGAAGC (((.(((....))).))) ? 50.4

Could you share which Tm value was measured for GGAGTAGGAAACCACTCC (((((.(....).))))) ? 42.6

Could you share which Tm value was measured for GGTCCCGAAAGGGTGACC ((((((....)))..))) ? 48

Could you share which Tm value was measured for GATCCGCACCCGGATC ((((((....)))))) ? 55.4

Could you share which Tm value was measured for GTCCTTCGAAAGAATGAC (((.(((....))).))) ? 39.2

Could you share which Tm value was measured for GTGCGCGAAAGCGCCCAC ((((((....)))..))) ? 43.3

Could you share which Tm value was measured for GATTAGCGAAAGCTGATC (((.(((....))).))) ? 51.1

Could you share which Tm value was measured for GATCAACACCTTGATC ((((((....)))))) ? 46.7

Could you share which Tm value was measured for GAATGCCGAAAGGCTTC (((.(((....)))))) ? 43.6

Could you share which Tm value was measured for GGATCGGAAACGATCC ((((((....)))))) ? 66.2

Could you share which Tm value was measured for GATCAAAGACTTGATC ((((((....)))))) ? 39.2

Could you share which Tm value was measured for GTTTGAGGAAACTTGAAC (((..((....))..))) ? 33.1

Could you share which Tm value was measured for GCGCATGGAAACACGCGC ((((.((....)).)))) ? 56.1

Could you share which Tm value was measured for GACCCGCGAAAGCGAGTC (((.(((....))).))) ? 55.7

Could you share which Tm value was measured for GTGCTTACGAAAGTACAC (((..(((....)))))) ? 34

Could you share which Tm value was measured for GCTCAGCCGAAAGGCAGC (((..(((....)))))) ? 41.1

Could you share which Tm value was measured for GGTCATGGAAACATAACC (((.(((....))).))) ? 31.6

Could you share which Tm value was measured for GCGGGCTGCCGC ((((....)))) ? 60.9

Could you share which Tm value was measured for GCGTGCCCACGC ((((....)))) ? 60.2

Could you share which Tm value was measured for GCTGAAGCGAAAGCTAGC (((..(((....)))))) ? 44.6

Could you share which Tm value was measured for GCCAGGCGAAAGCCGTGC ((..(((....)))..)) ? 50

Could you share which Tm value was measured for GCCGACGGAAACGTCAGC ((.((((....)))).)) ? 49.6

Could you share which Tm value was measured for GCGCCACGAAAGTGTCGC (((.(((....))).))) ? 63.3

Could you share which Tm value was measured for GCACGGCGAAAGCCACGC ((..(((....)))..)) ? 54.9

Could you share which Tm value was measured for GGGCACACGAAAGTGCCC (((..(((....)))))) ? 67.3

Could you share which Tm value was measured for GATCTGCCACCAGATC ((((((....)))))) ? 48.7

Could you share which Tm value was measured for GCCTGGCGAAAGCACGGC (((..((....))..))) ? 59.1

Could you share which Tm value was measured for GCTTAGCGAAAGCTTCGC ((..(((....)))..)) ? 42.9

Could you share which Tm value was measured for GATGAGCGAAAGCTGATC (((.(((....))).))) ? 45.9

Could you share which Tm value was measured for GCGCAGCGAAAGCTTCGC (((.(((....))).))) ? 51.4

Could you share which Tm value was measured for GTAAAGGCGAAAGCCTAC (((..(((....)))))) ? 35

Could you share which Tm value was measured for GGTCACGAAAGTGTTACC ((((((....)))..))) ? 38.2

Could you share which Tm value was measured for GGGTGTGGAAACGCACTC (.(((.(....).))).) ? 47.9

Could you share which Tm value was measured for GAGAGCGGAAACGTTCTC ((((.((....)).)))) ? 49.1

Could you share which Tm value was measured for GCAGAACGAAAGTTTTGC (((.(((....))).))) ? 52.1

Could you share which Tm value was measured for CGCGGAGCGATCCGCG ((((((....)))))) ? 62.2

Could you share which Tm value was measured for GCTGGCGGAAACACCAGC (((((.(....).))))) ? 53.5

Could you share which Tm value was measured for CGCGGACCATTCCGCG ((((((....)))))) ? 65.3

Could you share which Tm value was measured for GTGCAGCGAAAGCTACAC (((.(((....))).))) ? 54.1

Could you share which Tm value was measured for GCGGCTTCGAAAGAACGC (((..(((....)))))) ? 44.6

Could you share which Tm value was measured for GCTGAGCGAAAGCTACGC ((..(((....)))..)) ? 44.4

Could you share which Tm value was measured for GCGGTTGGAAACAGTCGC (((..((....))..))) ? 44.2

Could you share which Tm value was measured for GATCCCGGTGGGATC ((((((...)))))) ? 65.7

Could you share which Tm value was measured for GATCTGGGTCCAGATC ((((((....)))))) ? 52.7

Could you share which Tm value was measured for GATCTTCTGTAAGATC ((((((....)))))) ? 43.1

Could you share which Tm value was measured for GCTTTCGGAAACGAAAAC (.(((((....))))).) ? 36.4
